Molecular target: furin, P09958;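 further: purified furin at 1:10 enzyme:substrate in 50 mM HEPES pH 7.5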
Sequence (P09958 whole entry): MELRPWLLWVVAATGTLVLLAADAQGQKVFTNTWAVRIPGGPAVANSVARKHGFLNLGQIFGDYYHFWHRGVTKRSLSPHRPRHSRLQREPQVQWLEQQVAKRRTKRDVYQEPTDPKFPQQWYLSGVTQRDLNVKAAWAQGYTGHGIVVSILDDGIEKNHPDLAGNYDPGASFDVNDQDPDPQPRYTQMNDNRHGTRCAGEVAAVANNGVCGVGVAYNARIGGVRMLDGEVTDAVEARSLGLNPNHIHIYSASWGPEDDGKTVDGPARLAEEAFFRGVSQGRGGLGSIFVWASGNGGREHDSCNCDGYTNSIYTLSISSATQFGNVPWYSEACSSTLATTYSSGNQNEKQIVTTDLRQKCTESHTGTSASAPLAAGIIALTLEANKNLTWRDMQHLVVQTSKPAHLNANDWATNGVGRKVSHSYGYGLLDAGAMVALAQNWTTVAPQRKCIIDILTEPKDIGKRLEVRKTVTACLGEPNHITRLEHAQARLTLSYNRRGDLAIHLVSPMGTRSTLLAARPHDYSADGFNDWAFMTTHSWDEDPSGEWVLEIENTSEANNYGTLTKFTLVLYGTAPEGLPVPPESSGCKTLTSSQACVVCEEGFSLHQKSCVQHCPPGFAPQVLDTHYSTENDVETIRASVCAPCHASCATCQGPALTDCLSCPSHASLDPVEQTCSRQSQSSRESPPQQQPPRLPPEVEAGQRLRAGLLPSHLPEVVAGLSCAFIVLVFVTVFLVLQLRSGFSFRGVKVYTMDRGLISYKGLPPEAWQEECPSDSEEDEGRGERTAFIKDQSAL
Assay: furin cleavage Z-score vs untreated control; higher = more cleavage, active = 3.5 or more, inactive = 1 or less, 8 variable residues between constant flanks
Conditions: 15 min
Some of the results follow. No count for the full screen is at hand.
Hi! Could you answer with just one of these? active, inactive

**Query** # lookup: test call for CATTPCRGSWAGNASASA [HC70]
**Result** inactive

**Query** Try this sequence too: CAAQQRKKRAAGNASASA [FS-1306]
**Result** active

**Query** Then what about the sequence CAGGVVLVGLAGNASASA [HC570] ?
**Result** inactive

**Query** Try CASWAIKWEYAGNASASA [HC516] next.
**Result** inactive

**Query** Follow-up item: CAETPCSAHLAGNASASA [HC2472]
**Result** inactive

**Query** Okay, and CAVVCCSMSLAGNASASA [HC2085] ?
**Result** inactive

**Query** Likewise for CALNTGWLAGAGNASASA [HC377] ?
**Result** inactive

**Query** Subsequent entry: CAAGAGAGAGAGNASASA [NE3]
**Result** inactive

**Query** Here is the next sequence: CAIAYFSMVGAGNASASA [HC340]
**Result** inactive

**Query** Continue with CAVPCVREGNAGNASASA [HC274]
**Result** inactive

**Query** Same question for CAGGQIVGGVAGNASASA [HC174] please.
**Result** inactive

**Query** Then CAHDVVCCSMAGNASASA [HC2115] ?
**Result** inactive

**Query** What would you report for CALIVFPDLGAGNASASA [HC1450] ?
**Result** inactive

**Query** Same again, this time with CATFTIETITAGNASASA [HC895]
**Result** inactive

**Query** Here is the next sequence: CAGGQRKKRAAGNASASA [FS-1125]
**Result** active

These measurements were taken from the supplement of paper PMC3545927.
